These data points were gathered from patent US10457703B2.

ASSAYED SYSTEM: human FXR (NR1H4) (Homo sapiens (Human), UniProt Q96RI1)
Sequence (Q96RI1 whole entry, the tested form may be a part): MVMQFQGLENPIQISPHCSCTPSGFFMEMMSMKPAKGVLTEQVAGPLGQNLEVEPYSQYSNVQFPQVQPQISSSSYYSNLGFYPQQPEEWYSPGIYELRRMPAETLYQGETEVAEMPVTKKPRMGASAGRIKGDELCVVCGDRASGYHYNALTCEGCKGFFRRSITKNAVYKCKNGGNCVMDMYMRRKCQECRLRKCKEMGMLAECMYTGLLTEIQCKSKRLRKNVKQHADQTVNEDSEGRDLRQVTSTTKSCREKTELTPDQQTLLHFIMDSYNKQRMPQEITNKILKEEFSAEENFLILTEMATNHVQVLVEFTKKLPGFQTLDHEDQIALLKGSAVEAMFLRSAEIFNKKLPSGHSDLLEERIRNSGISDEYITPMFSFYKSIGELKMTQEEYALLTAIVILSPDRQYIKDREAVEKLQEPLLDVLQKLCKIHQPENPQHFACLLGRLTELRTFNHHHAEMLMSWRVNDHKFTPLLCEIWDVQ
ASSAY REMARKS: Human FXR (NR1H4) Assay (Gal4 promoter driven luciferase reporter, Indigo Bioscience kit)
COND: Human FXR (NR1H4) Assay, potency ranges
Reported EC50 is given for each of the following compounds.

The following compounds have reported results that may help.
COMPOUND: CC[C@H]1[C@@H](O)[C@@H]2[C@H](CC[C@]3(C)[C@@H]([C@H](C)CCOC(=O)NS(=O)(=O)c4cccc5ccccc45)CC[C@@H]23)[C@@]2(C)CC[C@@H](O)C[C@@H]12 [Example 81]
EC50: < 100 nM

COMPOUND: CC[C@H]1[C@@H](O)[C@@H]2[C@H](CC[C@]3(C)[C@@H]([C@H](C)COC(=O)NS(=O)(=O)c4ccc(-c5ccccc5)s4)CC[C@@H]23)[C@@]2(C)CC[C@@H](O)C[C@@H]12 [Example 10]
EC50: < 100 nM

COMPOUND: CC[C@H]1[C@@H](O)[C@@H]2[C@H](CC[C@]3(C)[C@@H]([C@H](C)CCOC(=O)NS(=O)(=O)c4ccc(OCC(F)(F)F)cc4)CC[C@@H]23)[C@@]2(C)CC[C@@H](O)C[C@@H]12 [Example 101]
EC50: 100 to 1000 nM

So, CC[C@H]1[C@@H](O)[C@@H]2[C@H](CC[C@]3(C)[C@@H]([C@H](C)COC(=O)NS(=O)(=O)c4ccc(-c5ccncc5)cc4)CC[C@@H]23)[C@@]2(C)CC[C@@H](O)C[C@@H]12 [Example 35] ? Its EC50 was 100 to 1000 nM

Entry CC[C@H]1[C@@H](O)[C@@H]2[C@H](CC[C@]3(C)[C@@H]([C@H](C)CCOC(=O)NCCCC(=O)OC)CC[C@@H]23)[C@@]2(C)CC[C@@H](O)C[C@@H]12 [Example 187] — recorded EC50 = 100 to 1000 nM

---

ASSAYED SYSTEM: human FXR (NR1H4) (Homo sapiens (Human), UniProt Q96RI1)
ASSAY REMARKS: Human FXR (NR1H4) Assay (Gal4 promoter driven luciferase reporter, Indigo Bioscience kit);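 for Efficacy (%): 100% equals the efficacy of CDCA; efficacy normalized to CDCA set as 100%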
Type: cell-based
COND: read-out: Efficacy (%)
Emax: recorded values
Enter the number, and then the unit.

Here are 2 molecules together with their reported answers.
MOLECULE: CC[C@H]1[C@@H](O)[C@@H]2[C@H](CC[C@]3(C)[C@@H]([C@H](C)COC(=O)NS(=O)(=O)c4ccc(-c5ccccc5)s4)CC[C@@H]23)[C@@]2(C)CC[C@@H](O)C[C@@H]12 [Example 10]
Emax: 259%

MOLECULE: CC[C@H]1[C@@H](O)[C@@H]2[C@H](CC[C@]3(C)[C@@H]([C@H](C)CCOC(=O)NC(C)CO)CC[C@@H]23)[C@@]2(C)CC[C@@H](O)C[C@@H]12 (stereo partly drawn) [Example 139]
Emax: 310%

Here is the next item to consider.
Entry CC[C@H]1[C@@H](O)[C@@H]2[C@H](CC[C@]3(C)[C@@H]([C@H](C)CCOC(=O)N4CCCC4c4cccc(Cl)c4)CC[C@@H]23)[C@@]2(C)CC[C@@H](O)C[C@@H]12 (stereo partly drawn) [Example 184] ; assay system human FXR (NR1H4) (Homo sapiens (Human), UniProt Q96RI1); Emax recorded at 213%

---

Measured Emax accompanies every entry in the list below.
ASSAYED SYSTEM: human FXR (NR1H4) (Homo sapiens (Human), UniProt Q96RI1)
ASSAY REMARKS: Human FXR (NR1H4) Assay (Gal4 promoter driven luciferase reporter, Indigo Bioscience kit);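 for Efficacy (%): 100% equals the efficacy of CDCA; efficacy normalized to CDCA set as 100%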
Type: cell-based
COND: read-out: Efficacy (%)
Report as a plain number; the unit % is understood.

Worked cases, answers included:
MOLECULE: CC[C@H]1[C@@H](O)[C@@H]2[C@H](CC[C@]3(C)[C@@H]([C@H](C)CCOC(=O)NCCCN4CCOCC4)CC[C@@H]23)[C@@]2(C)CC[C@@H](O)C[C@@H]12
DISPLAY UNIT: %
Emax: 276
//
MOLECULE: CC[C@H]1[C@@H](O)[C@@H]2[C@H](CC[C@]3(C)[C@@H]([C@H](C)COC(=O)NS(=O)(=O)c4ccc(-c5ccc(OC(F)(F)F)cc5)cc4)CC[C@@H]23)[C@@]2(C)CC[C@@H](O)C[C@@H]12
DISPLAY UNIT: %
Emax: 266
//
MOLECULE: CC[C@H]1[C@@H](O)[C@@H]2[C@H](CC[C@]3(C)[C@@H]([C@H](C)COC(=O)NS(=O)(=O)c4ccc(N5C6CCC5CC6)cc4)CC[C@@H]23)[C@@]2(C)CC[C@@H](O)C[C@@H]12
DISPLAY UNIT: %
Emax: 182

Emax for "CC[C@H]1[C@@H](O)[C@@H]2[C@H](CC[C@]3(C)[C@@H]([C@H](C)CCOC(=O)N[C@H]4CCC[C@@H]4O)CC[C@@H]23)[C@@]2(C)CC[C@@H](O)C[C@@H]12" is 205

---

The entries below are paired with their reported Emax.
ASSAYED SYSTEM: human FXR (NR1H4) (Homo sapiens (Human))
ASSAY REMARKS: Human FXR (NR1H4) Assay (Gal4 promoter driven luciferase reporter, Indigo Bioscience kit)
Format: cell-based
COND: read-out: Efficacy (%)
Method: ASSAYS Human FXR (NR1H4) Assay Determination of a ligand mediated Gal4 promoter driven transactivation to quantify ligand binding mediated activation of FXR. […] The principle application of this reporter assay system is to quantify functional activity of human FXR. […] Luminescence intensity of the reaction is quantified using a plate-reading luminometer, Envision. […] Cells were incubated for additional 22 hours before luciferase activities were measured. […] Read time may be 0.5 second (500 mSec) per well.
Reply numerically in %, unit not repeated.

The cases that follow already have their Emax on record.
MOLECULE: CC[C@H]1[C@@H](O)[C@@H]2[C@H](CC[C@]3(C)[C@@H]([C@H](C)CCOC(=O)NC4CCC4)CC[C@@H]23)[C@@]2(C)CC[C@@H](O)C[C@@H]12
Emax (%): 283
--
MOLECULE: CC[C@H]1[C@@H](O)[C@@H]2[C@H](CC[C@]3(C)[C@@H]([C@H](C)CCOC(=O)NCCN4CCOCC4)CC[C@@H]23)[C@@]2(C)CC[C@@H](O)C[C@@H]12
Emax (%): 253
--
MOLECULE: CC[C@H]1[C@@H](O)[C@@H]2[C@H](CC[C@]3(C)[C@@H]([C@H](C)CCCOC(=O)NC4CCCCC4)CC[C@@H]23)[C@@]2(C)CC[C@@H](O)C[C@@H]12
Emax (%): 187
--
MOLECULE: CC[C@H]1[C@@H](O)[C@@H]2[C@H](CC[C@]3(C)[C@@H]([C@H](C)CCOC(=O)NS(=O)(=O)c4ccc5ccccc5c4)CC[C@@H]23)[C@@]2(C)CC[C@@H](O)C[C@@H]12
Emax (%): 236
--
MOLECULE: CC[C@H]1[C@@H](O)[C@@H]2[C@H](CC[C@]3(C)[C@@H]([C@H](C)COC(=O)NS(=O)(=O)c4cccc(-c5ncco5)c4)CC[C@@H]23)[C@@]2(C)CC[C@@H](O)C[C@@H]12
Emax (%): 210
--
MOLECULE: CC[C@H]1[C@@H](O)[C@@H]2[C@H](CC[C@]3(C)[C@@H]([C@H](C)CCCOC(=O)NS(=O)(=O)c4ccc(-c5ccccc5)cc4)CC[C@@H]23)[C@@]2(C)CC[C@@H](O)C[C@@H]12
Emax (%): 294
--
MOLECULE: CC[C@H]1[C@@H](O)[C@@H]2[C@H](CC[C@]3(C)[C@@H]([C@H](C)CCOC(=O)NS(=O)(=O)c4ccc5c(c4)CCC5)CC[C@@H]23)[C@@]2(C)CC[C@@H](O)C[C@@H]12
Emax (%): 290
--
MOLECULE: CC[C@H]1[C@@H](O)[C@@H]2[C@H](CC[C@]3(C)[C@@H]([C@H](C)COC(=O)NS(=O)(=O)N4CCCC4)CC[C@@H]23)[C@@]2(C)CC[C@@H](O)C[C@@H]12
Emax (%): 324

Now for another entry.
Value of Emax reported for the molecule "CC[C@H]1[C@@H](O)[C@@H]2[C@H](CC[C@]3(C)[C@@H]([C@H](C)CCCOC(=O)Nc4ccc(C(C)(C)C)cc4)CC[C@@H]23)[C@@]2(C)CC[C@@H](O)C[C@@H]12" is 8

---

ASSAYED SYSTEM: human FXR (NR1H4) (Homo sapiens (Human), UniProt Q96RI1)
ASSAY REMARKS: Human FXR (NR1H4) Assay (Gal4 promoter driven luciferase reporter, Indigo Bioscience kit)
Assay type: cell-based
COND: Human FXR (NR1H4) Assay, potency ranges
pEC50: −log10 of the molar value.
OBSERVABLE: pEC50

COMPOUND: CC[C@H]1[C@@H](O)[C@@H]2[C@H](CC[C@]3(C)[C@@H]([C@H](C)COC(=O)NS(=O)(=O)c4ccc(N5CCCCC5=O)cc4)CC[C@@H]23)[C@@]2(C)CC[C@@H](O)C[C@@H]12 [Example 18]
pEC50: > 7.00
--
COMPOUND: CC[C@H]1[C@@H](O)[C@@H]2[C@H](CC[C@]3(C)[C@@H]([C@H](C)CCCOC(=O)N(C)C)CC[C@@H]23)[C@@]2(C)CC[C@@H](O)C[C@@H]12 [Example 128]
pEC50: 5.00 to 6.00
--
COMPOUND: CC[C@H]1[C@@H](O)[C@@H]2[C@H](CC[C@]3(C)[C@@H]([C@H](C)CCOC(=O)NS(=O)(=O)c4ccc(OC)c(F)c4)CC[C@@H]23)[C@@]2(C)CC[C@@H](O)C[C@@H]12 [Example 94]
pEC50: > 7.00
--
COMPOUND: CC[C@H]1[C@@H](O)[C@@H]2[C@H](CC[C@]3(C)[C@@H]([C@H](C)CCOC(=O)N4CCN(c5ccccc5OC)CC4)CC[C@@H]23)[C@@]2(C)CC[C@@H](O)C[C@@H]12 [Example 170]
pEC50: > 7.00

Memo: CC[C@H]1[C@@H](O)[C@@H]2[C@H](CC[C@]3(C)[C@@H]([C@H](C)CCCOC(=O)NS(=O)(=O)c4ccc5ccccc5c4)CC[C@@H]23)[C@@]2(C)CC[C@@H](O)C[C@@H]12 [Example 115] , reported pEC50: 6.00 to 7.00

The value of pEC50 measured for the compound CCCCCNC(=O)OCC[C@@H](C)[C@H]1CC[C@H]2[C@@H]3[C@H](O)[C@H](CC)[C@@H]4C[C@H](O)CC[C@]4(C)[C@H]3CC[C@]12C [Example 150] turned out to be 6.00 to 7.00

Notebook: CC[C@H]1[C@@H](O)[C@@H]2[C@H](CC[C@]3(C)[C@@H]([C@H](C)CCOC(=O)N4CCCC4)CC[C@@H]23)[C@@]2(C)CC[C@@H](O)C[C@@H]12 [Example 147] , pEC50 read as > 7.00

pEC50 reported for this compound CC[C@H]1[C@@H](O)[C@@H]2[C@H](CC[C@]3(C)[C@@H]([C@H](C)CCOC(=O)N4CCC[C@@H](CO)C4)CC[C@@H]23)[C@@]2(C)CC[C@@H](O)C[C@@H]12 [Example 204] : > 7.00

The reported value for CC[C@H]1[C@@H](O)[C@@H]2[C@H](CC[C@]3(C)[C@@H]([C@H](C)CCOC(=O)N4CCC(CC)(CO)CC4)CC[C@@H]23)[C@@]2(C)CC[C@@H](O)C[C@@H]12 [Example 217] in terms of pEC50 is > 7.00
